# t1/2 listing for each entry below
Target: T1, Human PD-L1 Dimer (human, UniProt Q9NZQ7 19-239)
T1 construct: also called hPD-L1 dimer; hPD-L1-hFc
T1 sequence (Q9NZQ7 19-239): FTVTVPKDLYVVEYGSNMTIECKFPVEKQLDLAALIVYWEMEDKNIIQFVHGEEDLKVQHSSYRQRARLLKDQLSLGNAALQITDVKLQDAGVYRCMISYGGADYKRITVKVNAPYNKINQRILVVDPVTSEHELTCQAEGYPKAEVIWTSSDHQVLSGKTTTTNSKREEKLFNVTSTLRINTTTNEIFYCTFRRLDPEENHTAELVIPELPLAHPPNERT
Assay: SPR (Biacore), mAb captured, 25C

| BINDER | t1/2 [h] |
| --- | --- |
| H1H9329P (antibody, human IgG1, V domains shown) VH: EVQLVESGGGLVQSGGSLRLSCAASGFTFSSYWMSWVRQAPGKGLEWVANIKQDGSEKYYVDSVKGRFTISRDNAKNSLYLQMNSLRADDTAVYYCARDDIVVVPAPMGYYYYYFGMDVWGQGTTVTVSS VL: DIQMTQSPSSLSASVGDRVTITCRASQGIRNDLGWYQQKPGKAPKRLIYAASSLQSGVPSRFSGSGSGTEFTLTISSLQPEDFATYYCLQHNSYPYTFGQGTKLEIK | 0.25 |
| H2aM8317N (antibody, mouse IgG2, V domains shown, also called H2M8317N) VH: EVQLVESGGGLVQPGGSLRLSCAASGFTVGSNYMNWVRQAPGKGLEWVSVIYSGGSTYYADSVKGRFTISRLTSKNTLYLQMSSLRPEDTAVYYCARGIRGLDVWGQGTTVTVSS VL: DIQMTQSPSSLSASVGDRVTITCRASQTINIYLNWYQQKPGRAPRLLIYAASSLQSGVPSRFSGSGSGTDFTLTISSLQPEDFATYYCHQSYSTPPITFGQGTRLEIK | 0.433 |
| H2aM8321N (antibody, mouse IgG2, V domains shown, also called H2M8321N) VH: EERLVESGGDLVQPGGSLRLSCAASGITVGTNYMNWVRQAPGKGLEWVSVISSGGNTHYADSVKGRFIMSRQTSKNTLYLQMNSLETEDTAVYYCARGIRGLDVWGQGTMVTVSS VL: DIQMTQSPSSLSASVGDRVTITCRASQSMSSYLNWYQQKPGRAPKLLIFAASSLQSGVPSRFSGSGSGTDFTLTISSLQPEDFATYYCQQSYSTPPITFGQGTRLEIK | 0.667 |
| H2aM8310N (antibody, mouse IgG2, V domains shown, also called H2M8310N) VH: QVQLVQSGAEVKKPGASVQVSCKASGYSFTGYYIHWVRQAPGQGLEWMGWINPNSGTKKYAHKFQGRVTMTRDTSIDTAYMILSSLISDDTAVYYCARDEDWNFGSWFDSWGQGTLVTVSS VL: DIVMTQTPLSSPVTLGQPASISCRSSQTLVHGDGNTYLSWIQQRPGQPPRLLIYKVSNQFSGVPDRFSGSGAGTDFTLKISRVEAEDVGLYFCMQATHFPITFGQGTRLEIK | 3.37 |
| H1H9336P (antibody, human IgG1, V domains shown) VH: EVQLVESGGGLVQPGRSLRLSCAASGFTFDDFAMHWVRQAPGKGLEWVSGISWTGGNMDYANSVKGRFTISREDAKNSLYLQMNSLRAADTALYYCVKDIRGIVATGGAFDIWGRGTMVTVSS VL: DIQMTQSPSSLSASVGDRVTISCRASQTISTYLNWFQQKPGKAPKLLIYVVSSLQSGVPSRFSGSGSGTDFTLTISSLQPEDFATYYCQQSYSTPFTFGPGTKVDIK | 1.77 |
| H2aM8323N (antibody, mouse IgG2, V domains shown, also called H2M8323N) VH: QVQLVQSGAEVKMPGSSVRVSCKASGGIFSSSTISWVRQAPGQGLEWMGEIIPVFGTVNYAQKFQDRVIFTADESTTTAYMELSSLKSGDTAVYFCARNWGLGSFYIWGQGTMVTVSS VL: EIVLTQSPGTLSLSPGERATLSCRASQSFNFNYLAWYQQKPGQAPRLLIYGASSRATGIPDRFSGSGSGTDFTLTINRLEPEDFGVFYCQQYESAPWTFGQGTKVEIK | 9.42 |
| H2aM8314N (antibody, mouse IgG2, V domains shown, also called H2M8314N) VH: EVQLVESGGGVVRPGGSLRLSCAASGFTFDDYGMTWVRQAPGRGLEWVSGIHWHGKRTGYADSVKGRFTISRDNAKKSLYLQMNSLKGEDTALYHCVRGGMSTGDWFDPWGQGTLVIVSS VL: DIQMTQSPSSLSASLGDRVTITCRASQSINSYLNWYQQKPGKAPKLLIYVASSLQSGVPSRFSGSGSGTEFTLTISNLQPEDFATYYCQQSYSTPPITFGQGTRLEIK | 14.3 |
